Reference for the values: PubChem BioAssay AID463178

system: Jurkat FADD-/- TNF-alpha necroptosis, CellTiter-Glo ATP, 24 h; test: inhibitors of TNF-alpha triggered necroptosis, potency, dose response, cell-based, Jurkat FADD-/-, duplicate IC50 (AID 463178)
The source made the active and inactive calls.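 How the source made its calls: active means IC50 below a set limit in both duplicate runs and mean IC50 below a set limit; inconclusive means IC50 above a set limit in only one run; inactive means IC50 above a set limit in both runs and mean.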
A correct response names exactly one class from true (active), false (inactive)

| Compound | Qualitative Label |
| --- | --- |
| O=C(Cn1cnc2ccc(Br)cc2c1=O)c1cccs1 | false |
| O=C(OC(C(=O)Nc1ccc([N+](=O)[O-])cc1Br)c1ccccc1)c1ccccc1 (stereo unspecified) | false |
| COc1ccc(/C=N/Nc2ccccn2)cc1OC | false |
| O=C(Nc1ccc(Cl)c(Cl)c1)N1N=CCC1c1ccccc1 (stereo unspecified) | true |

Prompt line: Which result was noted for this compound in the test: COC(C(=O)Nc1ccc(F)cc1)c1ccccc1 (stereo unspecified)
Response line: true

Prompt line: Query O=C(Nc1nccs1)c1cc2c(s1)CCCCC2 next
Response line: false
